For each record, write down the corresponding MIC.
# Tested on: M. tuberculosis 35801
# Experiment notes: MIC against M. tuberculosis strains, agar dilution
# Format: cell-based, Mycobacterium tuberculosis
# Condition description: S. No. 02 Mt-, Middle Brook 7H10 + OADC, 37° C., 14-21 days
Numbers only, in µg/mL.

Solved entries:
# Compound, MIC / µg/mL
rows = [
    ("CCc1cc(C(N)=S)ccn1 [ETH]", 2.0),
    ("CO[C@H]1/C=C/O[C@@]2(C)Oc3c(C)c(O)c4c(O)c(c(/C=N/N5CCN(C)CC5)c(O)c4c3C2=O)NC(=O)/C(C)=C\\C=C\\[C@H](C)[C@H](O)[C@@H](C)[C@@H](O)[C@@H](C)[C@H](OC(C)=O)[C@@H]1C [RIF]", 0.5),
]

Turning now to a further compound:
Endpoint output: MIC of NNC(=O)c1ccncc1 [INH] . Value?
0.06

----------
# Tested on: S. aureus SG 511
# Experiment notes: MIC, agar incorporation method
# Assay type: cell-based, Staphylococcus aureus
# Condition description: S. No. 3, S. aureus SG 511
Property: MIC

Solved cases (3 shown):
# Compound, Tgt, MIC
records = [
    ("CC(=O)NC[C@H]1CN(c2ccc(N3CCN(c4ccc([N+](=O)[O-])s4)CC3)cc2)C(=O)O1", "S. aureus SG 511", "2 µg/mL"),
    ("CC(=O)NC[C@H]1CN(c2ccc(N3CCN(c4cc(C(OC(C)=O)OC(C)=O)sc4[N+](=O)[O-])CC3)c(F)c2)C(=O)O1", "S. aureus SG 511", "0.25 µg/mL"),
    ("O=C(NC[C@H]1CN(c2ccc(N3CCN(c4ccc([N+](=O)[O-])s4)CC3)c(F)c2)C(=O)O1)C(Cl)Cl", "S. aureus SG 511", "0.5 µg/mL"),
]

Which value of MIC has been reported for C[C@H](Cl)C(=O)NCC1CN(c2ccc(N3CCN(c4ccc([N+](=O)[O-])s4)CC3)c(F)c2)C(=O)O1 (stereo partly shown) in the records?
>8 µg/mL

----------
Please provide measured MIC for the entries that follow.
# Tested on: M. intracellulare B-78/3
# Experiment notes: MIC against MAC strains, agar dilution
# Format: cell-based
# Condition description: S. No. 09 Mi-4, M. intracellulare B-78/3; Middle Brook 7H10 + OADC, 37° C., 14-21 days
Your answer should be a number followed by the unit of measure.

Look over these answered cases.
# Item smiles, Observed result
data = [
    ("CC[C@H]1OC(=O)[C@H](C)[C@@H](O[C@H]2C[C@@](C)(OC)[C@@H](O)[C@H](C)O2)[C@H](C)[C@@H](O[C@@H]2O[C@H](C)C[C@H](N(C)C)[C@H]2O)[C@](C)(OC)C[C@@H](C)C(=O)[C@H](C)[C@@H](O)[C@]1(C)O", "1.0 µg/mL"),
    ("CO[C@H]1/C=C/O[C@@]2(C)Oc3c(C)c(O)c4c(O)c(c(/C=N/N5CCN(C)CC5)c(O)c4c3C2=O)NC(=O)/C(C)=C\\C=C\\[C@H](C)[C@H](O)[C@@H](C)[C@@H](O)[C@@H](C)[C@H](OC(C)=O)[C@@H]1C", "0.25 µg/mL"),
    ("CCc1cc(C(N)=S)ccn1", "4.0 µg/mL"),
    ("C[C@@H]1CN(c2c(F)c(N)c3c(=O)c(C(=O)O)cn(C4CC4)c3c2F)C[C@H](C)N1", "2.0 µg/mL"),
]

--- query ---
Given the compound "NNC(=O)c1ccncc1" , what is its reported MIC?
16 µg/mL

----------
Field: MIC. Provide a value for each of the compounds that follow.
# System: M. avium intracellulare 540/96
# Experiment notes: MIC against MAC strains, agar dilution
# Format: cell-based
# Condition description: S. No. 12 Mai-4, M. avium intracellulare 540/96; Middle Brook 7H10 + OADC, 37° C., 14-21 days
Answers are plain numbers, in µg/mL.

# Compound, MIC (µg/mL)
rows = [
    ("NNC(=O)c1ccncc1 [INH]", 4.0),
    ("C[C@@H]1CN(c2c(F)c(N)c3c(=O)c(C(=O)O)cn(C4CC4)c3c2F)C[C@H](C)N1 [SPAR]", 4.0),
]

I would be grateful if you could share the reported MIC for CCc1cc(C(N)=S)ccn1 [ETH] .
32

----------
# System: M. tuberculosis M-149
# Experiment notes: MIC against M. tuberculosis strains, agar dilution
# Assay type: cell-based, Mycobacterium tuberculosis
# Condition description: S. No. 15 Mt-, Middle Brook 7H10 + OADC, 37° C., 14-21 days
Property: MIC (µg/mL)
Numbers only, in µg/mL.

# Item smiles, Tgt, Observed result
records = [
    ("NNC(=O)c1ccncc1", "M. tuberculosis M-149", 8.0),
    ("C[C@@H]1CN(c2c(F)c(N)c3c(=O)c(C(=O)O)cn(C4CC4)c3c2F)C[C@H](C)N1", "M. tuberculosis M-149", 2.0),
]

Proceed to the following item.
Please report the recorded MIC for "CC[C@H]1OC(=O)[C@H](C)[C@@H](O[C@H]2C[C@@](C)(OC)[C@@H](O)[C@H](C)O2)[C@H](C)[C@@H](O[C@@H]2O[C@H](C)C[C@H](N(C)C)[C@H]2O)[C@](C)(OC)C[C@@H](C)C(=O)[C@H](C)[C@@H](O)[C@]1(C)O" .
16

----------
Please go through the items and note down their MIC.
# System: S. pyogenes 20361
# Experiment notes: MIC, agar incorporation method
# Format: cell-based, Streptococcus pyogenes
# Condition description: S. No. 53, S. pyogenes 20361
One number for each entry, in µg/mL.

# Compound, MIC / µg/mL
data = [
    ("CC(=O)NC[C@H]1CN(c2ccc(N3CCN(c4cc(C(OC(C)=O)OC(C)=O)sc4[N+](=O)[O-])CC3)c(F)c2)C(=O)O1 [Compound No. 5]", 0.5),
    ("C[C@H](Cl)C(=O)NCC1CN(c2ccc(N3CCN(c4ccc([N+](=O)[O-])s4)CC3)c(F)c2)C(=O)O1 (stereo partly shown) [Compound No. 7]", 2),
    ("CC(=O)NC[C@H]1CN(c2ccc(N3CCN(c4ccc([N+](=O)[O-])s4)CC3)cc2)C(=O)O1 [Compound No. 6]", 0.5),
]

Now turn to the next compound.
// lookup MIC for O=C(NC[C@H]1CN(c2ccc(N3CCN(c4ccc([N+](=O)[O-])s4)CC3)c(F)c2)C(=O)O1)C(Cl)Cl [compound 9]
0.5

----------
# Test system: E. durans 581
# Experiment notes: MIC, agar incorporation method
# Format: cell-based
# Condition description: Enterococcus durans; S. No. 24, E. durans 581; read-out: MIC
Property: MIC (µg/mL)
Give bare numbers, in µg/mL.

Please give MIC for each item listed below.
1. CC(=O)NC[C@H]1CN(c2ccc(N3CCN(c4ccc(C=O)o4)CC3)c(F)c2)C(=O)O1
2. CC(=O)NC[C@H]1CN(c2ccc(N3CCN(c4ccc(C=O)s4)CC3)c(F)c2)C(=O)O1
3. CC(=O)NC[C@H]1CN(c2ccc(N3CCN(c4ccc([N+](=O)[O-])o4)CC3)c(F)c2)C(=O)O1
4. CC(=O)NC[C@H]1CN(c2ccc(N3CCN(c4ccc([N+](=O)[O-])s4)CC3)c(F)c2)C(=O)O1

1. 0.5
2. 0.5
3. 4
4. 0.25

----------
# Test system: M. intracellulare ATCC 35761
# Experiment notes: MIC against MAC strains, agar dilution
# Type: cell-based
# Condition description: S. No. 07 Mi-2, M. intracellulare ATCC 35761; Middle Brook 7H10 + OADC, 37° C., 14-21 days
Can you tell me MIC for the items I'm about to list?
Answers are plain numbers, in µg/mL.

As a guide, the following entries are already answered.
# Compound, Tgt, MIC, µg/mL
data = [
    ("CC[C@H]1OC(=O)[C@H](C)[C@@H](O[C@H]2C[C@@](C)(OC)[C@@H](O)[C@H](C)O2)[C@H](C)[C@@H](O[C@@H]2O[C@H](C)C[C@H](N(C)C)[C@H]2O)[C@](C)(OC)C[C@@H](C)C(=O)[C@H](C)[C@@H](O)[C@]1(C)O [CLA]", "M. intracellulare ATCC 35761", 0.5),
    ("C[C@@H]1CN(c2c(F)c(N)c3c(=O)c(C(=O)O)cn(C4CC4)c3c2F)C[C@H](C)N1 [SPAR]", "M. intracellulare ATCC 35761", 2.0),
    ("NNC(=O)c1ccncc1 [INH]", "M. intracellulare ATCC 35761", 4.0),
]

Consider now this further compound.
I have this compound here, CO[C@H]1/C=C/O[C@@]2(C)Oc3c(C)c(O)c4c(O)c(c(/C=N/N5CCN(C)CC5)c(O)c4c3C2=O)NC(=O)/C(C)=C\C=C\[C@H](C)[C@H](O)[C@@H](C)[C@@H](O)[C@@H](C)[C@H](OC(C)=O)[C@@H]1C [RIF] , and I need its recorded MIC.
0.25
